Provenance of the data: patent US20240309103A1

- Measured On: T1, hNPR1-mFc:hANP or hNPR1-hFc:hANP complex (human, UniProt P01160 124-151)
- T1 construct: also called human NPR1 complexed to ANP
- Assay Overview: SPR, mAb captured, 25C
Experimental Endpoint: t½ (min)

Binder	Experimental Endpoint	Units Label	Observed
mAb22809 (antibody, human IgG4, V domains shown) VH: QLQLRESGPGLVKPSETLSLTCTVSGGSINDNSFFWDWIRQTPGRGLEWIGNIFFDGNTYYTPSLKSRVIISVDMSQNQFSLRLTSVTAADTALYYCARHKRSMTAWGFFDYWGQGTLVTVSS VL: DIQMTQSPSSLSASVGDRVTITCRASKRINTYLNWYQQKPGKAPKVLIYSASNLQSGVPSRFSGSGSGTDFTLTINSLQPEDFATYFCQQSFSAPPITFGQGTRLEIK	t½	min	59.7
mAb25502 (antibody, human IgG4, V domains shown) VH: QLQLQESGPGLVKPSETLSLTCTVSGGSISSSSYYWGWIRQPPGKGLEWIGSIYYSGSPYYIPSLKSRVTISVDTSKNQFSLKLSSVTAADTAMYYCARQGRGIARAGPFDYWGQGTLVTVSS VL: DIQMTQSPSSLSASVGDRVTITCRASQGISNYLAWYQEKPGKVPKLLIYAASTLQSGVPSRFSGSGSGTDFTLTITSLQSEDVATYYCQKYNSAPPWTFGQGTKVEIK	t½	min	45.7
mAb25497 (antibody, human IgG4, V domains shown) VH: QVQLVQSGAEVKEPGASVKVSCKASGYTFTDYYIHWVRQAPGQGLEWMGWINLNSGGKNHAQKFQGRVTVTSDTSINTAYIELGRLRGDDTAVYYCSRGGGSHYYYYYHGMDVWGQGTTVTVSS VL: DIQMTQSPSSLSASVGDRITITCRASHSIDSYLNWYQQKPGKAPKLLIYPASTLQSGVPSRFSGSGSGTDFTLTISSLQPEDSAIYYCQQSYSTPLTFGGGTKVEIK	t½	min	253
